# assay_name: Surface tension of surface-active agent
# Format: physicochemical
# setup_conditions: in aqueous solution
quantity: σO = surface tension

Examples with their reported σO = surface tension follow.
# compound, quantity, result
data = [
    ("O=C(N(CCO)CC(O)C(O)C(O)C(O)CO)C(F)(F)C(F)(F)C(F)(F)C(F)(F)C(F)(F)C(F)(F)C(F)(F)F (stereo not drawn) [Example T16]", "σO = surface tension", "σO < 20 mNm"),
    ("C[N+](C)(C)C.O=C([O-])C(F)(F)C(F)(F)C(F)(F)C(F)(F)C(F)(F)C(F)(F)C(F)(F)F [E 749]", "σO = surface tension", "σO < 20 mNm"),
    ("O=C(N(CCO)CCO)C(F)(F)C(F)(F)C(F)(F)C(F)(F)C(F)(F)C(F)(F)C(F)(F)F [HO31, Perfluorooctanoic acid diethanolamide]", "σO = surface tension", "σO < 20 mNm"),
    ("CC[N+](CC)(CC)CC.O=S(=O)([O-])C(F)(F)C(F)(F)C(F)(F)C(F)(F)C(F)(F)C(F)(F)C(F)(F)C(F)(F)F [Example B248]", "σO = surface tension", "σO < 20 mNm"),
    ("O=C(N(CCO)C[C@H](O)[C@@H](O)[C@H](O)[C@H](O)CO)C(F)(F)C(F)(F)C(F)(F)C(F)(F)C(F)(F)C(F)(F)C(F)(F)C(F)(F)C(F)(F)F [Example T21]", "σO = surface tension", "σO < 20 mNm"),
]

Now for another entry.
Input line: Provide only the value of recorded σO = surface tension for CN(C[C@H](O)[C@@H](O)[C@H](O)[C@H](O)CO)C(=O)C(F)(F)C(F)(F)C(F)(F)C(F)(F)C(F)(F)C(F)(F)C(F)(F)F [Example T14]
Output line: σO < 20 mNm
